Source listed as PubChem BioAssay (NCI).

test system: RXF 393 renal; test: NCI tumour cell line growth inhibition, 48 h
I'd be grateful if you could share measured TGI for these entries.

Worked examples, 10 compounds total:
>  <Compound>
CC1CCC[P+](Cc2ccccc2)(c2ccccc2)CC1 (stereo not given)

>  <Measurement type>
TGI

>  <Experimental result>
> 100 µM

$$$$
>  <Compound>
Fc1ccc(-c2nn(-c3ccccc3)cc2-c2nc3ccccc3o2)cc1

>  <Measurement type>
TGI

>  <Experimental result>
> 100 µM

$$$$
>  <Compound>
N#Cc1nc(-c2ccc(F)cc2)oc1S(=O)(=O)N1CCOCC1

>  <Measurement type>
TGI

>  <Experimental result>
2.92 µM

$$$$
>  <Compound>
Clc1ccc(Cc2nc3cc4ccccc4cc3[nH]2)cc1

>  <Measurement type>
TGI

>  <Experimental result>
> 100 µM

$$$$
>  <Compound>
CC(=O)/C(=C/n1c(=S)sc2ccccc21)C(=O)Nc1ccccc1C

>  <Measurement type>
TGI

>  <Experimental result>
> 100 µM

$$$$
>  <Compound>
CNC(=O)c1cc(Oc2ccc3c(c2)sc2nc(-c4ccc(N)cc4)cn23)ccn1

>  <Measurement type>
TGI

>  <Experimental result>
> 100 µM

$$$$
>  <Compound>
N#CC(C#N)=C1CCCS(=O)(=O)c2ccccc21

>  <Measurement type>
TGI

>  <Experimental result>
> 100 µM

$$$$
>  <Compound>
N#Cc1c(OCCF)c2ccccc2n2c1nc1ccccc12

>  <Measurement type>
TGI

>  <Experimental result>
> 100 µM

$$$$
>  <Compound>
NC1(CCCCCCCCCCC(=O)O)CNCCNCCNCCNC1

>  <Measurement type>
TGI

>  <Experimental result>
> 100 µM

$$$$
>  <Compound>
CC1=CC=CC(C)(C)CC1(O[Si](C)(C)C)C(F)(F)F (stereo not given)

>  <Measurement type>
TGI

>  <Experimental result>
> 100 µM

$$$$

Working through the 6 compounds below one at a time, give TGI for each.
1. O=C1C(Cl)N(c2ccccc2)C1c1c[nH]c2ccccc12 (stereo not given)
2. O=C1C(C=NCCc2c[nH]c3ccccc23)C(C(F)(F)F)=NN1c1nc2ccccc2s1 (stereo not given)
3. C=C1CC(OC)(C(O)C(=O)N[C@H]2OCO[C@H]3C2O[C@H](C[C@@H](COC)OC)C(C)(C)C3OC)O[C@H](C)[C@@H]1C (stereo not given in full)
4. O=C1Oc2cc3c(c4cccc1c24)OCN(c1ccc(Cl)cc1)C3
5. N#Cc1c2c(c(Nc3ccc(F)cc3)n3c1nc1ccccc13)CCC2
6. O=C1OC[C@@H]2Cc3c([nH]c4ccccc34)[C@@H](c3ccc(O)cc3)N12

output:
["> 100 µM", "48.5 µM", "< 0.00482 µM", "> 84.2 µM", "7.9 µM", "64.3 µM"]

Working through the 4 compounds below one at a time, give TGI for each.
1. O=[N+]([O-])c1ccc(NSc2ccccc2)cc1
2. C[Si](C)(C)c1ccc(CC2(Cc3ccc([Si](C)(C)C)cc3)CCNC2)cc1
3. CC1=CC(=O)N(n2c(C)n[nH]c2=O)C1=O
4. O=C1CC[C@H]2CNC(=O)C[C@H]2C1

output:
40.9 µM
3.14 µM
> 100 µM
> 100 µM
